tested on: A549 (NSCLC) cells; test: Anti-proliferative activity, Cell-Titre luminescent viability assay; format: cell-based; settings: Homo sapiens, 72 h exposure, Cell-Titre luminescent reagent
measurement_name: IC50 (µM)

Would you please look over these solved cases?
>  <compound>
O=C(Nc1ccc(C(F)(F)F)cc1)c1ccn(S(=O)(=O)c2ccc3[nH]ccc3c2)c1

>  <unit_name>
µM

>  <IC50>
6.8

$$$$
>  <compound>
Cc1ccc(NC(=O)C2CCN(S(=O)(=O)c3ccc4[nH]ccc4c3)CC2)cc1O

>  <unit_name>
µM

>  <IC50>
44.4

$$$$

[I] O=C(Nc1ccc(Cl)cc1)c1ccn(S(=O)(=O)c2ccc3[nH]ccc3c2)n1
[II] CCC(C)c1ccc(NC(=O)c2ccn(S(=O)(=O)c3ccc4[nH]ccc4c3)n2)cc1 (stereo not drawn)
Identify the entry with the larger IC50. Options: I and II Response format: the label of the selected entry.
I
(I: 19 µM, II: 8.51 µM)

Hey, just so you know, these numbers are from patent US12528792B2.
